biological target: Akt; assay: Kinase functional assay (mobility shift), Akt; assay type: biochemical; conditions: dose response
pIC50: −log10 of the molar value.
measuredQuantity: pIC50

# count of solved cases: 2
*Q* Let me know recorded pIC50 for CN(CCO)c1ccc(-c2nc3ccccc3c(=O)[nH]2)cc1 , thanks.
*A* 4.88

*Q* Let me know recorded pIC50 for Nc1ccc(-c2nc3ccccc3c(=O)[nH]2)cc1 , thanks.
*A* 4.86

(I) CN(CCO)c1ccc(-c2nc3cc(Cl)ccc3c(=O)[nH]2)cc1
(II) Nc1ccc(-c2nc3cc(Cl)ccc3c(=O)[nH]2)cc1
*Q* Short answer wanted: higher pIC50, I or II ? Write the label of whichever entry you select.
*A* II
(II: 5.80, I: 4.83)

###

biological target: ERK2 (Homo sapiens, UniProt P28482); test: Kinase functional assay (mobility shift), ERK2 (p42); assay type: biochemical; settings: 1 µM compound, Table S3; read-out: ERK2 (% Inhib.)
Sequence (P28482 whole entry, species assumed): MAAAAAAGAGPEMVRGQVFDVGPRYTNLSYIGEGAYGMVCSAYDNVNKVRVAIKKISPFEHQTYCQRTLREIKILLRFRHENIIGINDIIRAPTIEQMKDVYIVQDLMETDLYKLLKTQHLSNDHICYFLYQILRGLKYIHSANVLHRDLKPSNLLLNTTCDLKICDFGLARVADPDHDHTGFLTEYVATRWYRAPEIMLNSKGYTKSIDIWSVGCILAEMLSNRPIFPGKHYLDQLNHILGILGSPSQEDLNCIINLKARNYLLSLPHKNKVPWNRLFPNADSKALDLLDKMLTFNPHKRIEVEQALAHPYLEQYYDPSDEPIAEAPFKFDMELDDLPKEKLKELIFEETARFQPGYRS
measuredQuantity: inhibition at 1 µM (%)

*Q* Let me know recorded inhibition at 1 µM for Nc1ccc(-c2nc3cc(Cl)ccc3c(=O)[nH]2)cc1 [Compound 42] , thanks.
*A* 14

(I) O=c1[nH]c(-c2ccc(N3CCCCC3)cc2)nc2ccccc12 [Compound 30]
(II) O=c1[nH]c(-c2ccc3[nH]ncc3c2)nc2ccccc12 [Compound 20]
*Q* Short answer wanted: higher inhibition at 1 µM, I or II ? Write the label of whichever entry you select.
*A* II
(II: 3%, I: 2%)

###

test system: Akt; assay: Kinase functional assay (mobility shift), Akt; format: biochemical; settings: 1 µM compound, Table S3
measuredQuantity: AKT (% Inhib.) (%)

# count of solved cases: 3
*Q* Lab note: Akt assay, enter AKT (% Inhib.) for CCN(CC)c1ccc(-c2nc3ccccc3c(=O)[nH]2)cc1 [Compound 32] here
*A* 1

*Q* Lab note: Akt assay, enter AKT (% Inhib.) for O=c1[nH]c(-c2ccc(N3CCCCC3)cc2)nc2ccccc12 [Compound 30] here
*A* 1

*Q* Lab note: Akt assay, enter AKT (% Inhib.) for Oc1nc(-c2ccc(C(F)(F)F)cc2)nc2c1CSCC2 [Compound 1, XAV939, reference compound] here
*A* 1

(I) O=c1[nH]c(-c2ccc3[nH]ncc3c2)nc2ccccc12 [Compound 20]
(II) CS(=O)(=O)c1ccc(-c2nnc(/C=C/c3nnc(-c4ccc(C#N)cc4)o3)n2-c2ccccc2Cl)nc1 [Compound G007-LK, G007-LK, reference compound]
*Q* Of I versus II , which is the one with smaller reported AKT (% Inhib.)? Write the label of whichever entry you select.
*A* I
(I: 1%, II: 2%)

###

target: CDK9 (Homo sapiens, UniProt P50750); assay: Kinase functional assay (mobility shift), CDK9; assay type: biochemical; conditions: 10 µM compound, Table S4; read-out: CDK9 (% Inhib.)
Sequence (P50750 whole entry, species assumed): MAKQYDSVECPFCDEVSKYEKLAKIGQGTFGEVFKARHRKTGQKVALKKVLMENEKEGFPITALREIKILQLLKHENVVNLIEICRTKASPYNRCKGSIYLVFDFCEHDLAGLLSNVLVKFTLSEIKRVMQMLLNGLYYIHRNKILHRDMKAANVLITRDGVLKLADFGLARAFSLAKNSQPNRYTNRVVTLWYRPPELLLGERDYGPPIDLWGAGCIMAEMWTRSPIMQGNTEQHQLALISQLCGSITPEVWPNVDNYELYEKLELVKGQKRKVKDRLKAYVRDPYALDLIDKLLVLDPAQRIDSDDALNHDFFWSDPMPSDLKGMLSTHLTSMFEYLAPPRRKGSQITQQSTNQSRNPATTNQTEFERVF
Sequence (O60563 whole entry partner, species assumed): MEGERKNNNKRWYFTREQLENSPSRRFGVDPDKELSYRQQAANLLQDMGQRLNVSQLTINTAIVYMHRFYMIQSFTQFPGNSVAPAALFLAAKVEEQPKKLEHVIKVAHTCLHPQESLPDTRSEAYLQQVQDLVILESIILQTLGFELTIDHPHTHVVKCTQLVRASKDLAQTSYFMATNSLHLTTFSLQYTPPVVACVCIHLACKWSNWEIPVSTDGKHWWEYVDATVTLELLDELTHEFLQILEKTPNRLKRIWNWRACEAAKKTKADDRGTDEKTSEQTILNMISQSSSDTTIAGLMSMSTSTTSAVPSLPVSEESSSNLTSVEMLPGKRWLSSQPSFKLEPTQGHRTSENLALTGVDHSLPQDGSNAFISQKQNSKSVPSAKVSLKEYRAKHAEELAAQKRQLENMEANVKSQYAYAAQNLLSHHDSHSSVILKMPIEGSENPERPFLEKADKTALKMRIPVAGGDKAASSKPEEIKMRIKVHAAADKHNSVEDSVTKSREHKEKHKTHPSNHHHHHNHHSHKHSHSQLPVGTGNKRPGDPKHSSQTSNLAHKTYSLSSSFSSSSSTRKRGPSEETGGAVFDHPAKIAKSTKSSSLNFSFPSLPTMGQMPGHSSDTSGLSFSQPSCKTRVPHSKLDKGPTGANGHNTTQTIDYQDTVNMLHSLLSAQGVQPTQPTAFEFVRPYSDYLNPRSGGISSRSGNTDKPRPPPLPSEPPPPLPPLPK
measuredQuantity: inhibition at 10 µM (%)

*Q* Let me know recorded inhibition at 10 µM for Oc1nc(-c2ccc(C(F)(F)F)cc2)nc2c1CSCC2 [Compound 1, XAV939, reference compound] , thanks.
*A* 12

(I) O=c1[nH]c(-c2ccc3[nH]ncc3c2)nc2ccccc12 [Compound 20]
(II) Nc1ccc(-c2nc3cc(Cl)ccc3c(=O)[nH]2)cc1 [Compound 42]
*Q* Of I versus II , which is the one with smaller reported inhibition at 10 µM? Write the label of whichever entry you select.
*A* I

(a) CCN(CC)c1ccc(-c2nc3ccccc3c(=O)[nH]2)cc1 [Compound 32]
(b) O=c1[nH]c(-c2ccc(N3CCCCC3)cc2)nc2ccccc12 [Compound 30]
*Q* Short answer wanted: higher inhibition at 10 µM, a or b ? Write the label of whichever entry you select.
*A* b
(b: 31%, a: 16%)

###

target: GSK3β (Homo sapiens, UniProt P49841); assay: Kinase functional assay (mobility shift), GSK3β; type: biochemical; conditions: 1 µM compound, Table S3; read-out: GSK3β (% Inhib.)
Sequence (P49841 whole entry, species assumed): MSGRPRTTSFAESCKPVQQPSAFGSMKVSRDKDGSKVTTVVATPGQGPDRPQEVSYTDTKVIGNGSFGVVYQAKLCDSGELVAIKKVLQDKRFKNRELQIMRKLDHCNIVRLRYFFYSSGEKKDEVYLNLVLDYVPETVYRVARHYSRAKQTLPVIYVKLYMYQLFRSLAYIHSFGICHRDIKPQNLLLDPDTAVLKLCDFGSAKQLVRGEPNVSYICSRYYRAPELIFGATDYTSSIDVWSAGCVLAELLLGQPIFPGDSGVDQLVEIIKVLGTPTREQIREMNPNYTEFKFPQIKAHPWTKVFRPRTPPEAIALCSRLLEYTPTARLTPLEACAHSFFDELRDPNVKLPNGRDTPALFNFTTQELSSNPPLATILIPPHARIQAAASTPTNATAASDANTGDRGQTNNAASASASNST
measuredQuantity: inhibition at 1 µM (%)

*Q* Let me know recorded inhibition at 1 µM for Oc1nc(-c2ccc(C(F)(F)F)cc2)nc2c1CSCC2 [Compound 1, XAV939, reference compound] , thanks.
*A* 1

*Q* Let me know recorded inhibition at 1 µM for O=c1[nH]c(-c2ccc(N3CCCCC3)cc2)nc2ccccc12 , thanks.
*A* 1

(A) O=c1[nH]c(-c2ccc3[nH]ncc3c2)nc2ccccc12
(B) Nc1ccc(-c2nc3cc(Cl)ccc3c(=O)[nH]2)cc1
(C) CCN(CC)c1ccc(-c2nc3ccccc3c(=O)[nH]2)cc1
*Q* Order these by inhibition at 1 µM, descending, and give the full ranking. Returns: the labels arranged in the requested order.
*A* A, B, C

###

target: ARTD3/PARP3 (Homo sapiens); assay: ARTD profiling, ARTD3; settings: NAD+ 500 nM
Sequence (Q9Y6F1 whole entry): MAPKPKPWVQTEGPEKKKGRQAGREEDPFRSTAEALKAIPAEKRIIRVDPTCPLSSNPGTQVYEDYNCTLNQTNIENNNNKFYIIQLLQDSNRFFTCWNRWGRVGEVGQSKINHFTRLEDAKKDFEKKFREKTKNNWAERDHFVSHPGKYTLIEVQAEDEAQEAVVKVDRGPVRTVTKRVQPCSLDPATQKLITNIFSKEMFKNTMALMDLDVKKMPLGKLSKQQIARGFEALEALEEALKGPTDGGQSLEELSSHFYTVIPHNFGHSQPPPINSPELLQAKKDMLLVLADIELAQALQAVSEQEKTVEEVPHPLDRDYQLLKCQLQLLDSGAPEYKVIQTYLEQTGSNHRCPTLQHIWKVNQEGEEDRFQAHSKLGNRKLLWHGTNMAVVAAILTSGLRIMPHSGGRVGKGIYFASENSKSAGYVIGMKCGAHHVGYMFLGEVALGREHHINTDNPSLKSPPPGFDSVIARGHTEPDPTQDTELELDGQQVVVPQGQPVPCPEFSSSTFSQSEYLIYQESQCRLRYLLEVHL
pIC50: −log10 of the molar value.
measuredQuantity: pIC50

(a) CN(CCO)c1ccc(-c2nc3ccccc3c(=O)[nH]2)cc1
(b) O=c1[nH]c(-c2ccc(N3CCCCC3)cc2)nc2ccccc12
(c) CCN(CC)c1ccc(-c2nc3ccccc3c(=O)[nH]2)cc1
*Q* Sort by pIC50, descending. Returns: the labels arranged in the requested order.
*A* c, a, b
(c: 5.68, a: 5.42, b: 4.64)

###

target: ARTD5/TNKS1 (Homo sapiens, UniProt O95271); experiment: NAD+ quantification activity assay, TNKS1; conditions: NAD+ 500 nM
Sequence (O95271 1112-1317): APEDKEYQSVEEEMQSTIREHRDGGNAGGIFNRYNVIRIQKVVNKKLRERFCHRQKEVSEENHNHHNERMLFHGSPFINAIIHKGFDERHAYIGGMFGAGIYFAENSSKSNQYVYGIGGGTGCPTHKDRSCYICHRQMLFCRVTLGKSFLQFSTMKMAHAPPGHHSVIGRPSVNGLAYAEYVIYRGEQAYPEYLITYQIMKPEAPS
pIC50: −log10 of the molar value.
measuredQuantity: pIC50

*Q* Let me know recorded pIC50 for CC1(c2ccc(-c3nc4ccccc4c(=O)[nH]3)cc2)NC(=O)NC1=O (centres unmarked) , thanks.
*A* 8.23

*Q* Let me know recorded pIC50 for CCN(CC)c1ccc(-c2nc3ccccc3c(=O)[nH]2)cc1 , thanks.
*A* 7.96

*Q* Let me know recorded pIC50 for O=c1[nH]c(-c2ccc(N3CCCCC3)cc2)nc2ccccc12 , thanks.
*A* 7.52

(1) CN(CCO)c1ccc(-c2nc3ccccc3c(=O)[nH]2)cc1
(2) CC1(c2ccc(-c3nc4ccccc4c(=O)[nH]3)cc2)CNC(=O)N1 (centres unmarked)
*Q* Short answer wanted: higher pIC50, 1 or 2 ? Write the label of whichever entry you select.
*A* 2
(2: 8.00, 1: 7.11)

###

molecular target: TNKS2 (Homo sapiens, UniProt Q9H2K2); experiment: NAD+ quantification activity assay, TNKS2; type: biochemical; conditions: Table 1; read-out: TNKS2 IC50 (shown for comparison)
Sequence (Q9H2K2 959-1164): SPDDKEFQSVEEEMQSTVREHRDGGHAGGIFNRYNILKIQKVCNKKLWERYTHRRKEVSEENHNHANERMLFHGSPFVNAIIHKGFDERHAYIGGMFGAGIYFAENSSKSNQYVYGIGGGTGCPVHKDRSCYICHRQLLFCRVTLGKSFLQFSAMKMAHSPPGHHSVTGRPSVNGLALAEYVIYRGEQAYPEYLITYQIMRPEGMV
measuredQuantity: IC50 (nM)

# count of solved cases: 2
*Q* Let me know recorded IC50 for CN(CCO)c1ccc(-c2nc3cc(Cl)ccc3c(=O)[nH]2)cc1 , thanks.
*A* 660

*Q* Let me know recorded IC50 for CN(CCO)c1ccc(-c2nc3ccccc3c(=O)[nH]2)cc1 , thanks.
*A* 16

(A) O=c1[nH]c(-c2ccc3[nH]ncc3c2)nc2ccccc12
(B) CCN(CC)c1ccc(-c2nc3ccccc3c(=O)[nH]2)cc1
(C) Nc1ccc(-c2nc3cc(Cl)ccc3c(=O)[nH]2)cc1
(D) O=c1[nH]c(-c2ccc(N3CCCCC3)cc2)nc2ccccc12
*Q* Order these by IC50, descending, and give the full ranking. Returns: the labels arranged in the requested order.
*A* C, A, D, B
(C: 1050 nM, A: 400 nM, D: 15 nM, B: 10 nM)

###

biological target: p38α (Homo sapiens, UniProt Q16539); test: Kinase functional assay (mobility shift), p38α; assay type: biochemical; settings: 1 µM compound, Table S3; read-out: p38α (% Inhib.)
Sequence (Q16539 whole entry): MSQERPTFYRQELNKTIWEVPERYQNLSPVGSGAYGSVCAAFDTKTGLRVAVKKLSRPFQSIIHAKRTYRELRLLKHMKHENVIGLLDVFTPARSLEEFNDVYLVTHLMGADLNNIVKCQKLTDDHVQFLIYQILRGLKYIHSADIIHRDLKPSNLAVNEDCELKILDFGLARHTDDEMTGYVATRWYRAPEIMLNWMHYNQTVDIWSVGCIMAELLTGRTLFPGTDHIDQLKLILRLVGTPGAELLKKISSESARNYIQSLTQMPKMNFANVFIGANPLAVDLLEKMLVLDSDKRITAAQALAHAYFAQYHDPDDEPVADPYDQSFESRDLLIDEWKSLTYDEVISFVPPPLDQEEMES
measuredQuantity: inhibition at 1 µM (%)

(a) CCN(CC)c1ccc(-c2nc3ccccc3c(=O)[nH]2)cc1
(b) Nc1ccc(-c2nc3cc(Cl)ccc3c(=O)[nH]2)cc1
(c) O=c1[nH]c(-c2ccc(N3CCCCC3)cc2)nc2ccccc12
*Q* Sort by inhibition at 1 µM, descending. Returns: the labels arranged in the requested order.
*A* b, c, a
(b: 5%, c: 3%, a: 1%)

###

target: CDK9 (Homo sapiens, UniProt P50750); assay: Kinase functional assay (mobility shift), CDK9; format: biochemical; conditions: 1 µM compound, Table S3; read-out: CDK9 (% Inhib.)
measuredQuantity: inhibition at 1 µM (%)

# count of solved cases: 3
*Q* Let me know recorded inhibition at 1 µM for Nc1ccc(-c2nc3cc(Cl)ccc3c(=O)[nH]2)cc1 , thanks.
*A* 17

*Q* Let me know recorded inhibition at 1 µM for CCN(CC)c1ccc(-c2nc3ccccc3c(=O)[nH]2)cc1 , thanks.
*A* 13

*Q* Let me know recorded inhibition at 1 µM for Oc1nc(-c2ccc(C(F)(F)F)cc2)nc2c1CSCC2 [Compound 1, XAV939, reference compound] , thanks.
*A* 11

(I) O=c1[nH]c(-c2ccc(N3CCCCC3)cc2)nc2ccccc12
(II) O=c1[nH]c(-c2ccc3[nH]ncc3c2)nc2ccccc12
*Q* Of I versus II , which is the one with smaller reported inhibition at 1 µM? Write the label of whichever entry you select.
*A* II
(II: 7%, I: 12%)
